- Test system: Streptococcus suis P1/7
- Assay procedure: percent growth relative to DMSO control; higher = less growth inhibition
- Condition info: 10 µM; incubation time 18 h
Readout: percent growth (%)
Express your answer in %, writing the number without its unit.

{"Compound": "Cc1nc(-c2ccccn2)nc(NCCc2ccc(S(C)(=O)=O)cc2)c1Cl", "percent growth (%)": 73.3}

Hello, I am looking for reported percent growth with Streptococcus suis P1/7 for Cc1cnc(CCNC(=O)c2cc(-c3ccc(Cl)cc3)cs2)[nH]1 . Could you help?
77.5

Item Clc1ccc(CN2CCN(C3=NCCN3)CC2)cc1Cl with Streptococcus suis P1/7 - percent growth?
72.2

API: value(readout= percent growth, system= Streptococcus suis P1/7, query= Cc1nn(C)cc1C(C)Nc1nncc(-c2ccc(C(F)(F)F)cc2)n1 (stereo unspecified) )
103

percent growth of CCOc1ccc2cc(-c3nn(C(C)(C)C)c(N)c3C(N)=O)cnc2c1 on Streptococcus suis P1/7?
83.1

Lookup: percent growth / Streptococcus suis P1/7 / c1ccc(-c2nc(NC3CCCCC3)cc(C3CC3)n2)nc1
0.494

Give percent growth (Streptococcus suis P1/7) of the following compound: Cn1c(=O)c2c(S(C)(=O)=O)snc2n(C)c1=O
93

What measured percent growth is associated with CNCCC(Oc1ccc(C(F)(F)F)cc1)c1ccccc1 (stereo unspecified) on Streptococcus suis P1/7?
98.5

So what percent growth did CCc1c(C)nc(-n2nc(C)cc2NC(=O)c2ccccc2SC)[nH]c1=O get with Streptococcus suis P1/7?
1.97

Hi! What's the reported percent growth for CC1(COc2ccc(N3CCC(Oc4ccc(OC(F)(F)F)cc4)CC3)cc2)Cn2cc([N+](=O)[O-])nc2O1 (stereo unspecified) on Streptococcus suis P1/7?
114

For the record CCOc1ccc(OCC(=O)Nc2cc(C)cc(C)c2)cc1 , what value of percent growth is listed for Streptococcus suis P1/7?
94.3

* * *

- Test system: Streptococcus suis HE06
- Assay procedure: percent growth relative to DMSO control; higher = less growth inhibition
- Condition info: 10 µM; incubation time 18 h
percent growth values for the molecules below.
The reply should be a number in %, with the unit left off.

Here is how some molecules turned out for percent growth.
{"Molecule": "CCc1ccc(C(NCc2nc(N)nc(N(C)C)n2)C(C)C)cc1 (stereo not given)", "percent growth, %": 12.8}
{"Molecule": "Cc1nc2ccccn2c1C(=O)NCc1ccc(Cl)cc1", "percent growth, %": 78.1}
{"Molecule": "Cc1ccc2nc(Cl)c(CNCc3cccs3)cc2c1", "percent growth, %": 93.6}

// percent growth lookup, key: N#Cc1ccc(-c2ccc(OCC(N)=O)cc2)cc1
91.4

Give its percent growth value. Item: CC(C)(C)c1cc(C(=O)N2CCN(c3nccnc3C#N)CC2)n(Cc2ccccc2)n1
93.1

Which percent growth value is on record for CCc1nc2ccc(C(=O)NCc3ccc4c(c3)OCO4)cn2c1N(C)Cc1cccs1 ?
122

Fill in the blank: the reported percent growth of COc1ccc(C(=N)N)cc1-c1cn(-c2ccc(C(=N)N)cc2)nn1 is ____.
105

Consider the molecule shown here: CC(C)(C)C1CCC(CC2=C(O)C(=O)c3ccccc3C2=O)CC1 (stereo not given) What is its recorded percent growth?
17.3

Item O=C(NC1CCN(c2ccnc3ccccc23)C1)c1cccc(C(F)(F)F)c1 (stereo not given) has what recorded percent growth?
106

I am curious: what percent growth value has been reported for COc1ccc(C2=NN(C3CCCCCC3)C(=O)[C@@H]3CC=CC[C@H]23)cc1OCCCCOc1ccc(-c2nn[nH]n2)cc1 ?
0
